- Test system: Mus musculus
- Experiment notes: Maximum concentration in female C57BL/6 mice administered with 300 mg/kg, po
- Format: ADME, organism-based
- Set-up: dose 300 mg/kg, route oral
- Run conditions: in vivo
Recorded Cmax values for a group of molecules are listed next.
Use ng/mL as the unit, but write only the number.

Take a look at these entries with their results.
                            chemical_string  tested_system  test_result
0  Cl.O=C(NCc1ccc(N2CCN(Cc3ccccc3)CC2)cc1)c1ccc([N+](=O)[O-])o1   Mus musculus         2240
1  Cl.O=C(NCc1cccc(N2CCN(Cc3ccccc3)CC2)c1)c1ccc([N+](=O)[O-])o1   Mus musculus         1640
2  O=C(NCc1ccc(N2CCN(Cc3ccccc3)CC2)c(F)c1)c1ccc([N+](=O)[O-])o1   Mus musculus         1640
3  O=C(NCc1ccc(N2CCSCC2)cc1)c1ccc([N+](=O)[O-])o1   Mus musculus          820

Read the next record carefully.
What value of Cmax has been reported for the following molecule? O=C(NCc1ccc(N2CCOCC2)cc1)c1ccc([N+](=O)[O-])o1
3000

* * *

- Experiment notes: Oral bioavailability in female C57BL/6 mice administered with 300 mg/kg, po
- Type: ADME, organism-based
- Run conditions: C57BL/6, mouse, in vivo
Attribute measured: bioavailability (%)
Use % as the unit, but write only the number.

Take a look at these entries with their results.
                            chemical_string  attribute_measured  test_result
0  O=C(NCc1ccc(N2CCN(Cc3ccccc3)CC2)c(F)c1)c1ccc([N+](=O)[O-])o1     bioavailability           21
1  O=C(NCc1ccc(N2CCSCC2)cc1)c1ccc([N+](=O)[O-])o1     bioavailability            1
2  O=C(NCc1ccc(N2CCOCC2)cc1)c1ccc([N+](=O)[O-])o1     bioavailability           21

What value of bioavailability has been reported for the following molecule? Cl.O=C(NCc1cccc(N2CCN(Cc3ccccc3)CC2)c1)c1ccc([N+](=O)[O-])o1
21

* * *

- Experiment notes: Half life in female C57BL/6 mice administered with 300 mg/kg, po
- Type: ADME, organism-based
- Design: dose 300 mg/kg, route oral
- Run conditions: C57BL/6, mouse, in vivo
Recorded half-life values for a group of molecules are listed next.
Answer shape: numeric part, then the unit.

In [3]: df
Out[3]:
                            chemical_string  test_result
0  Cl.O=C(NCc1cccc(N2CCN(Cc3ccccc3)CC2)c1)c1ccc([N+](=O)[O-])o1        1.3 h

Read the next record carefully.
What value of half-life has been reported for the following molecule? Cl.O=C(NCc1ccc(N2CCN(Cc3ccccc3)CC2)cc1)c1ccc([N+](=O)[O-])o1
1.1 h

Recorded values, source ChEMBL document CHEMBL1140435.
